The origin of these recorded values is ChEMBL document CHEMBL3769348.

# measured on: Muscarinic acetylcholine receptor M4 (Homo sapiens)
# Sequence (whole entry): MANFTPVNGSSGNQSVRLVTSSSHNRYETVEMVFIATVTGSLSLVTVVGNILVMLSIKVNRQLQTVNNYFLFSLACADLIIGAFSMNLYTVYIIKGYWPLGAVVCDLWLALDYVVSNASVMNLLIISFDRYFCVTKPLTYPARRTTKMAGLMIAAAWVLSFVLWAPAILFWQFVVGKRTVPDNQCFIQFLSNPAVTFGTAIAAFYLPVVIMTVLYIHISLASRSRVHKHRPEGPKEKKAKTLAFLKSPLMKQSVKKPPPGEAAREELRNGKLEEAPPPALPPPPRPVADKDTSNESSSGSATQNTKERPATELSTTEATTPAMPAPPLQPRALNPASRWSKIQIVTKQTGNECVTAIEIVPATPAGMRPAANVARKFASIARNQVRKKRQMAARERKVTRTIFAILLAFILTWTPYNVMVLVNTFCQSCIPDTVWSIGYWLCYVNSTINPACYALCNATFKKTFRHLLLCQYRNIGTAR
# test method notes: Displacement of [3H]NMS from human M4 mAChR expressed in FIpIn-CHO cells assessed as ligand affinity after 4 hrs by scintillation counting method in the presence of ACh
# Format: cell-based
Collected Activity values appear next to each entry.
API doc: respond with a numeric literal and nothing else, no unit.

Below: 5 molecules and their reported Activity.
{"chemical string": "CCNC(=O)c1sc2nc(OC)c(Cl)c(C)c2c1N", "Activity": 562}
{"chemical string": "COc1nc2sc(C(=O)NC3CC3)c(N)c2c(C)c1Br", "Activity": 347}
{"chemical string": "CCCCOc1nc2sc(C(=O)NC3CC3)c(N)c2c(C)c1Cl", "Activity": 22.4}
{"chemical string": "COc1nc2sc(C(=O)NC3CC3)c(N)c2c(C)c1Cl", "Activity": 1740}
{"chemical string": "CCCCNC(=O)c1sc2nc(OC)c(Cl)c(C)c2c1N", "Activity": 123}

So, CCOc1nc2sc(C(=O)NC3CC3)c(N)c2c(C)c1Cl ? Its Activity was 95.5

So, COc1nc2sc(C(=O)NC3CC3)c(N)c2c(C)c1I ? Its Activity was 269

====

# measured on: Muscarinic acetylcholine receptor M4 (Homo sapiens)
# test method notes: Allosteric modulation of human M4 mAChR expressed in FIpIn-CHO cells assessed as ERK1/2 phosphorylation after 6 mins by Alphascreen assay in the presence of ACh
# Assay type: cell-based
Activity calls are given as the source filed them. The calls are words filed in the database; no cut-off is given here.
reported metric: Kb

{"chemical string": "CCCCOc1nc2sc(C(=O)NC3CC3)c(N)c2c(C)c1Cl", "measured on": "Muscarinic acetylcholine receptor M4 (Homo sapiens)", "result": "200 nM"}
{"chemical string": "CCNC(=O)c1sc2nc(OC)c(Cl)c(C)c2c1N", "measured on": "Muscarinic acetylcholine receptor M4 (Homo sapiens)", "result": "200 nM"}
{"chemical string": "CCCCCC(=O)Nc1c(C(=O)NC2CC2)sc2nc(OC)c(Cl)c(C)c12", "measured on": "Muscarinic acetylcholine receptor M4 (Homo sapiens)", "result": "inactive"}
{"chemical string": "CCCCCCOc1nc2sc(C(=O)NC3CC3)c(N)c2c(C)c1Cl", "measured on": "Muscarinic acetylcholine receptor M4 (Homo sapiens)", "result": "40 nM"}
{"chemical string": "CCCCNC(=O)c1sc2nc(OC)c(Cl)c(C)c2c1N", "measured on": "Muscarinic acetylcholine receptor M4 (Homo sapiens)", "result": "500 nM"}

So, Cc1nc2sc(C(=O)NC3CC3)c(N)c2c(C)c1Cl ? Its Kb was 400 nM

So, COc1cc(C)c2c(N)c(C(=O)NC3CC3)sc2n1 ? Its Kb was 2800 nM

So, COc1nc2sc(C(=O)NC3CC3)c(N)c2c(C)c1Br ? Its Kb was 300 nM

So, CCOc1nc2sc(C(=O)NC3CC3)c(N)c2c(C)c1Cl ? Its Kb was 800 nM

So, CCCC(=O)Nc1c(C(=O)NC2CC2)sc2nc(OC)c(Cl)c(C)c12 ? Its Kb was inactive

So, CCCCCCNC(=O)c1sc2nc(OC)c(Cl)c(C)c2c1N ? Its Kb was 200 nM

So, COc1nc2sc(C(=O)NC3CC3)c(NC(C)=O)c2c(C)c1Cl ? Its Kb was inactive

So, COc1nc2sc(C(=O)NC3CC3)c(N)c2c(C)c1I ? Its Kb was 200 nM

So, COc1nc2sc(C(=O)NC3CC3)c(N)c2c(C)c1Cl ? Its Kb was 400 nM

So, Cc1nc(C)c2c(N)c(C(=O)NC3CC3)sc2n1 ? Its Kb was 12500 nM
